These entries and their values trace back to PubChem BioAssay (NCI).

# TGI annotations
Test system: KM20L2 colon
Assay method text: NCI tumour cell line growth inhibition, 48 h

Smiles text: COC1=CC(=O)NCCN1
TGI: > 100 µM
--
Smiles text: CCCCc1c2c(nc3c1CC/C(=C\c1ccc([N+](=O)[O-])cc1)C3=O)CCCC2
TGI: 4.01 µM
--
Smiles text: Cc1ccc2c(CC(=O)O)cc(=O)oc2c1
TGI: > 100 µM

---

# TGI annotations
Test system: HCC-2998 colon
Assay method text: NCI tumour cell line growth inhibition, 48 h
Outcome measure: TGI

Compound: O=C1Nc2ccccc2/C1=C\c1c(Cl)nc2n1CCS2
Measured: 35.3 µM
//
Compound: O=c1cc(O)c2c(O)cc(O)cc2o1
Measured: > 100 µM
//
Compound: Cc1c(N=NN(C)C)cc[n+]([O-])c1C
Measured: > 100 µM
//
Compound: CC1(C)N=C(N)N=C(N)N1c1ccc(Cl)c(Cl)c1
Measured: > 40.7 µM
//
Compound: N#CCCN(CCC#N)c1ccc(C(N=Nc2ccc(Cl)cc2)=Nc2ccc(Cl)cc2)cc1
Measured: 27.1 µM
//
Compound: COc1ccc2c(c1)CCN1C3=C(CCC3)C(=O)C[C@@H]21
Measured: > 100 µM
//
Compound: Cc1ccc2c(CC(=O)O)cc(=O)oc2c1
Measured: > 100 µM
//
Compound: COC(=O)/C(=C\c1c(-c2ccccc2)[nH]c2ccccc12)S(C)(=O)=O
Measured: 22.4 µM
//
Compound: CCN(CC)CCC(=O)/C=C/c1ccc(C)cc1
Measured: 32.6 µM
//
Compound: CCOC(=O)N1N(c2ccccc2)C(=O)C1(c1ccccc1)c1ccccc1
Measured: > 100 µM
//
Compound: CCn1c(=O)c2c3cc(OC(C)=O)ccc3oc2c2ccc(OC(C)=O)cc21
Measured: 58.2 µM
//
Compound: CC(C)[C@](O)(C(=O)OCC1=CCN2CC[C@@H](O)[C@@H]12)[C@H](C)O
Measured: > 375 µM
//
Compound: COc1ccc(/C(=N/O)c2cc(OC)c(OC)c(OC)c2)c(OC)c1N
Measured: > 100 µM
//
Compound: Cc1cc(O)cc(C)c1/C=C/c1cncc(C(=O)OC(C)(C)C)c1
Measured: > 25 µM
//
Compound: Cc1cccc(C(=O)O)c1CC1NCCC2c3ccccc3NC12 (stereo unspecified)
Measured: > 100 µM
//
Compound: CCN(CC)CC(=O)Nc1ccc2c(c1)C(=O)c1ccc(NC(=O)CN(CC)CC)cc1C2=O
Measured: > 100 µM
//
Compound: COc1cc(NC(C)CCCN)c2ncccc2c1Sc1ccc(Cl)cc1 (stereo unspecified)
Measured: 3.17 µM
//
Compound: N=C(N)SCc1ccc([N+](=O)[O-])cc1[N+](=O)[O-]
Measured: 18.1 µM
//
Compound: NC(=O)C1N=NSC1NC(=O)c1ccc([N+](=O)[O-])cc1 (stereo unspecified)
Measured: > 100 µM
//
Compound: Oc1c(CNCCNCc2cc(Cl)cc(Cc3ccccc3)c2O)cc(Cl)cc1Cc1ccccc1
Measured: 10.1 µM
//
Compound: Cc1ccc(C)c(COCCOCn2c(=O)[nH]c(=O)c3cc(Br)ccc32)c1
Measured: > 100 µM
//
Compound: CCCCS(=O)CC(CO)NC(=O)/C=C/c1c(C)[nH]c(=O)[nH]c1=O (stereo unspecified)
Measured: 30 µM
//
Compound: Oc1c2c(c(O)c3ccccc13)C1(N=N2)c2ccccc2Oc2ccccc21
Measured: 38.7 µM
//
Compound: Nc1nc(-c2cc(-c3cccc4ccccc34)nc(N)n2)cc(-c2cccc3ccccc23)n1
Measured: > 100 µM
//
Compound: CC(=O)c1cccc(NC(=O)c2ccc(NC3=C(Cl)C(=O)N(Cc4ccccc4)C3=O)cc2)c1
Measured: 41 µM
//
Compound: CC(=O)OC1OC(c2ccoc2)C[C@@]12C1CCC3O[C@]3(C)[C@]1(C)C[C@H](OC(C)=O)[C@H]2C (stereo partly specified)
Measured: > 75 µM
//
Compound: CC/C=C\C[C@H](O)C/C=C1/C(=O)C=C[C@@H]1C/C=C\CCCC(=O)NC
Measured: 3.35 µM
//
Compound: C=CCn1c(-c2ccc(Cl)cc2Cl)csc1=Nc1c(C)n(C)n(-c2ccccc2)c1=O
Measured: 29.1 µM
//
Compound: CCOC(=O)c1cn2c(ccc3sc4ccccc4c(=O)c32)n1
Measured: > 100 µM
//
Compound: Cc1[nH]c(=O)nc(N(CCO)/N=C/c2ccc(Cl)cc2)c1C(=O)Nc1ccc(Cl)cc1
Measured: > 100 µM
//
Compound: COc1cc2c(cc1O)C(c1cc(O)c(O)c(OC)c1)C(O)(C(=O)O)C(CO)C2O (stereo unspecified)
Measured: > 100 µM
//
Compound: Nc1ccc(OCCCc2c(-c3ccccc3)nc(N)[nH]c2=O)cc1
Measured: > 100 µM
//
Compound: Cc1c(-c2ccc(O)c(O)c2)oc(=O)c2c(O)cccc12
Measured: 22.1 µM
//
Compound: COC(=O)[C@@H](OC)[C@@H]1Cc2cc3cc(OC4CC(OC5CC(O)C(O)C(C)O5)C(O)C(C)O4)c(C)c(O)c3c(O)c2C(=O)[C@H]1OC1CC(OC2CC(OC3CC(C)(O)C(O)C(C)O3)C(O)C(C)O2)C(O)C(C)O1 (stereo partly specified)
Measured: 0.252 µM
//
Compound: C[C@]12CC[C@@H]3c4ccc(O)cc4CC[C@H]3[C@@H]1CC[C@@H]2NS(=O)(=O)c1ccc2ccccc2c1
Measured: 15.5 µM
//
Compound: NC(N)=NS(=O)(=O)c1ccc(NC(=O)c2ccc3nc4ccccc4c(N)c3c2)cc1
Measured: > 100 µM
//
Compound: COC1=CC(=O)NCCN1
Measured: > 100 µM
//
Compound: Cc1cc2c(C(C)C)c(O)c(O)c(C=Nc3ccccc3)c2c(O)c1-c1c(C)cc2c(C(C)C)c(O)c(O)c(C=Nc3ccccc3)c2c1O
Measured: > 100 µM
//
Compound: CCOP(C)(=O)/C(Cc1ccc(OC)c(OC)c1)=N\O (stereo unspecified)
Measured: > 100 µM
//
Compound: CN(C)c1ccc(/C=N/NC(=O)c2cccc3ccccc23)c(Cl)c1
Measured: > 100 µM
//
Compound: COc1ccc(-c2nc3cc(C(F)(F)F)ccc3n2CC2CCCN3CCCCC23)cc1 (stereo unspecified)
Measured: 24.5 µM
